# TARGET OF ASSAY: EZH2 (Homo sapiens (Human), UniProt Q15910)
# Sequence (Q15910 other isoform, or with tags, fused parts or gaps): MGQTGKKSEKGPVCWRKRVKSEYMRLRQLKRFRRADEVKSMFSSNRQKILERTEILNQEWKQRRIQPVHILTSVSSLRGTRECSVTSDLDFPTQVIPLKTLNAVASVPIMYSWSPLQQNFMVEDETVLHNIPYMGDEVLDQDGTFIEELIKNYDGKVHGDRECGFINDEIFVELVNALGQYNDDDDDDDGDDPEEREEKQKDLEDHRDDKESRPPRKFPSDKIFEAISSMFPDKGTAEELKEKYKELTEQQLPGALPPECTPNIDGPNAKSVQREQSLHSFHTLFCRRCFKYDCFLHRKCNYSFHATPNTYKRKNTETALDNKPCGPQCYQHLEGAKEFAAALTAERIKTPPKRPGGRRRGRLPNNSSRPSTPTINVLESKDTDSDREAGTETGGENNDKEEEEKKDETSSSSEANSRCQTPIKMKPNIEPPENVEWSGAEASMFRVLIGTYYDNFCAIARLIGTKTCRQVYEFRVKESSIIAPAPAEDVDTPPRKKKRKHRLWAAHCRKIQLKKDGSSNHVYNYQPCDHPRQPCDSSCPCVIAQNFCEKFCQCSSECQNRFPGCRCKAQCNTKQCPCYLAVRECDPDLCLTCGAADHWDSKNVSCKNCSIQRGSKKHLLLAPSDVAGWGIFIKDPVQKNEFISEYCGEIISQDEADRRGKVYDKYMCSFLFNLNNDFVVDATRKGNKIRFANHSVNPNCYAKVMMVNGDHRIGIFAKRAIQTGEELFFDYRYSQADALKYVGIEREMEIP
# Sequence (O75530 whole entry partner): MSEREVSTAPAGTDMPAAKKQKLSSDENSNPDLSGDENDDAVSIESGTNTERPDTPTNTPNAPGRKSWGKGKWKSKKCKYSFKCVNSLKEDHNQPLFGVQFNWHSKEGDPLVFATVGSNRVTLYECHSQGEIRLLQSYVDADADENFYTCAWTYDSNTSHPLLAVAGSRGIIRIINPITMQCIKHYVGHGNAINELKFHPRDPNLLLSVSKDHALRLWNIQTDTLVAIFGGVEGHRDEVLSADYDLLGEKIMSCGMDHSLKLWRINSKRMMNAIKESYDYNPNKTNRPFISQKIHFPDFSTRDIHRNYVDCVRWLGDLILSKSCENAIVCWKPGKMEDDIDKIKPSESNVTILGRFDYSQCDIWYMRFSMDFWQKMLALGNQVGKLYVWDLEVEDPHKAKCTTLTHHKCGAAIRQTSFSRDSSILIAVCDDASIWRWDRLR
# Sequence (Q15022 whole entry partner): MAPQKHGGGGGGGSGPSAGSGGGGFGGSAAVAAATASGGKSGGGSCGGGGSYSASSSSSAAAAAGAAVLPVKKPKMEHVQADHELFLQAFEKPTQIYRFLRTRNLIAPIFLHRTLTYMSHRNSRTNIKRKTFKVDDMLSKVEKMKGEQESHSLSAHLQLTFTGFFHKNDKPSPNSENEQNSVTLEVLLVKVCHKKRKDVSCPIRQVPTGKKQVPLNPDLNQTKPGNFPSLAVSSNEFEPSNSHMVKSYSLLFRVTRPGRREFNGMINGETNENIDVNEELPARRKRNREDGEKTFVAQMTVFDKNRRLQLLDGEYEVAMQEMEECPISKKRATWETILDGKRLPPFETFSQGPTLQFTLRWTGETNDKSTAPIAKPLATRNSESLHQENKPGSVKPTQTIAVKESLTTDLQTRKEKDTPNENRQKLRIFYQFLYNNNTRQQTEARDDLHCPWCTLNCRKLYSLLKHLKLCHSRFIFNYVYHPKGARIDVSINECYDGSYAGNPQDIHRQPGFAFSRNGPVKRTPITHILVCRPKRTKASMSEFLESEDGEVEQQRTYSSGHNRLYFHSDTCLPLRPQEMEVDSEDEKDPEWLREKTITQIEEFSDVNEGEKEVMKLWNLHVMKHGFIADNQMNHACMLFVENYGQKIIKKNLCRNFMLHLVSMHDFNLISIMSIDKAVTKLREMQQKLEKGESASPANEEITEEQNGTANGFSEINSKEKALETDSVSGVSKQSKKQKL
# Sequence (Q09028 whole entry partner): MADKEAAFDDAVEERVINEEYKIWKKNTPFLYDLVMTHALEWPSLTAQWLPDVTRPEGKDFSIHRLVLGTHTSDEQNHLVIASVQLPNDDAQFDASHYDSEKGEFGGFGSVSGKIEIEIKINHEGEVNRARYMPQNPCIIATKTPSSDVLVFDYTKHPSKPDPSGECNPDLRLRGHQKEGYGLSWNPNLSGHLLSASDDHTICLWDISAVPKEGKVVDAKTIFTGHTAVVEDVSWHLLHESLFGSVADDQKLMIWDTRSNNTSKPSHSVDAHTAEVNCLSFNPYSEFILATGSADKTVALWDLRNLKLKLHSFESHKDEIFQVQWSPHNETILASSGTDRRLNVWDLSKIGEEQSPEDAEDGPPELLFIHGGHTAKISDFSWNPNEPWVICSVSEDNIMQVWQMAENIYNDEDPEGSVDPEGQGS
# METHOD: PRC2 enzyme assay on peptide substrates
# Type: biochemical
# EXPERIMENTAL SETUP: PRC2 enzyme assays on peptide substrates; 4 nM enzyme, 30 min preincubation at 25° C.; read-out: EZH2 IC50
ASSAY READOUT: IC50

> print(dat)
                                   compound       result
1  Cc1cc(C)c(CNC(=O)c2cc(C3=CC(C)(C)NC(C)(C)C3)nc3c2cnn3C2CCC2)c(=O)[nH]1  0.3 to 1 µM
2  Cc1cc(C)c(CNC(=O)c2cc(C3=CCN(C(=O)C4CCCNC4)CC3)nc3c2cnn3C(C)C)c(=O)[nH]1 (stereo not shown)     < 0.3 µM
3  Cc1cc(C)c(CNC(=O)c2cc(-c3cccc(CN(C)C)c3)nc3c2cnn3C(C)C)c(=O)[nH]1  0.3 to 1 µM
4  COc1cc(C(=O)NCc2c(C)cc(C)[nH]c2=O)c2cnn(C(C)C)c2n1    1 to 3 µM
5  Cc1cc(C)c(CNC(=O)c2cc(-c3ccnc(N4CCNCC4)c3)nc3c2cnn3C(C)C)c(=O)[nH]1  0.3 to 1 µM
6  CNCCCOc1ccc(-c2cc(C(=O)NCc3c(C)cc(C)[nH]c3=O)c3cnn(C4CCCC4)c3c2)cc1     < 0.3 µM
7  Cc1cc(C)c(CNC(=O)c2cc(Br)cc3c2cnn3C2CN(C(=O)OC(C)(C)C)C2)c(=O)[nH]1    1 to 3 µM

---

# TARGET OF ASSAY: EZH2 (Homo sapiens (Human), UniProt Q15910)
# METHOD: PRC2 enzyme assay on peptide substrates
# Type: biochemical
# EXPERIMENTAL SETUP: PRC2 enzyme assays on peptide substrates; 4 nM enzyme, 30 min preincubation at 25° C.; read-out: EZH2 IC50
ASSAY READOUT: IC50

> print(dat)
                                    compound            result
 1  CNCC(=O)N1CCC(c2cc(C(=O)NCc3c(C)cc(C)[nH]c3=O)c3cnn(C(C)C)c3n2)CC1    300 to 1000 nM
 2  Cc1cc(C)c(CNC(=O)c2cc(-c3cccc(OCCCN(C)C)c3)cc3c2cnn3C2CCCC2)c(=O)[nH]1          < 300 nM
 3  Cc1cc(C)c(CNC(=O)c2cc(-c3cnc(N)nc3)cc3c2cnn3C2CCCC2)c(=O)[nH]1          < 300 nM
 4  Cc1cc(C)c(CNC(=O)c2cc(Br)cc3c2cnn3C2CCN(C(=O)OC(C)(C)C)C2)c(=O)[nH]1 (stereo not drawn)    300 to 1000 nM
 5  Cc1cc(CN2CCN(C)CC2)c(CNC(=O)c2cc(Br)cc3c2cnn3C2CCCC2)c(=O)[nH]1    300 to 1000 nM
 6  Cc1cc(CN(C)C)c(CNC(=O)c2cccc3c2cnn3C2CCCC2)c(=O)[nH]1  3000 to 10000 nM
 7  Cc1ccc(-n2ncc3c(C(=O)NCc4c(C)cc(C)[nH]c4=O)cc(-c4ccc(N5CCN(C)CC5)nc4)nc32)cc1  3000 to 10000 nM
 8  Cc1cc(C)c(CNC(=O)c2cc(C3=CCN(C(=O)[C@@H](N)CO)CC3)nc3c2cnn3C(C)C)c(=O)[nH]1    300 to 1000 nM
 9  Cc1cc(C)c(CNC(=O)c2cc(C3=CC(C)(C)NC(C)(C)C3)nc3c2cnn3C2COC2)c(=O)[nH]1    300 to 1000 nM
10  Cc1cc(C)c(CNC(=O)c2cc(C3=CCN(C4CCN(CCS(C)(=O)=O)CC4)CC3)nc3c2cnn3C(C)C)c(=O)[nH]1          < 300 nM
11  Cc1cc(C)c(CNC(=O)c2cc(N3CCC(N4CCN(C)CC4)CC3)nc3c2cnn3C(C)C)c(=O)[nH]1   1000 to 3000 nM
12  Cc1cc(C)c(CNC(=O)c2cc(C(O)CO)nc3c2cnn3C(C)C)c(=O)[nH]1 (stereo not drawn)  3000 to 10000 nM
13  Cc1cc(C)c(CNC(=O)c2cc(CNCCO)cc3c2cnn3C2CCCC2)c(=O)[nH]1   1000 to 3000 nM
14  Cc1cc(C)c(CNC(=O)c2cccc3c2ccn3C(C)C)c(=O)[nH]1   1000 to 3000 nM
15  Cc1cc(C)c(CNC(=O)c2cc(C3CCN(C4CCNCC4)CC3)nc3c2cnn3C(C)C)c(=O)[nH]1          < 300 nM

---

# TARGET OF ASSAY: EZH2 (Homo sapiens (Human))
# METHOD: PRC2 enzyme assay on peptide substrates
# Type: biochemical
# EXPERIMENTAL SETUP: PRC2 enzyme assays on peptide substrates; 4 nM enzyme, 30 min preincubation at 25° C.; read-out: EZH2 IC50
pIC50: −log10 of the molar value.
ASSAY READOUT: pIC50

> print(dat)
                                    compound        result
 1  Cc1cc(C)c(CNC(=O)c2cc(-c3ccc(CN4CCOCC4)cc3)nc3c2cnn3C2CCCC2)c(=O)[nH]1 [Compound A-1]        > 6.52
 2  Cc1cc(C)c(CNC(=O)c2cc(C3=CCN(C(=O)C4CCN(C)CC4)CC3)nc3c2cnn3C(C)C)c(=O)[nH]1 [Compound B-34]        > 6.52
 3  Cc1cc(C)c(CNC(=O)c2cc(C(=O)NCCN(C)C)nc3c2cnn3C(C)C)c(=O)[nH]1 [Compound B-140]  5.00 to 5.52
 4  Cc1cc(CO)c(CNC(=O)c2cc(-c3ccc(CN4CCOCC4)cc3)nc3c2cnn3C(C)C)c(=O)[nH]1 [Compound A-96]  5.00 to 5.52
 5  Cc1cc(C)c(CNC(=O)c2cc(OC3CCN(C)CC3)nc3c2cnn3C(C)C)c(=O)[nH]1 [Compound B-6]  6.00 to 6.52
 6  CC(C)n1ncc2c(C(=O)NCc3cc4c([nH]c3=O)CCNC4)cc(-c3ccc4c(c3)OCCO4)nc21 [Compound A-71]  4.30 to 5.00
 7  Cc1cc(C)c(CNC(=O)c2cc(-c3ccc(N4CCN(C(=O)OC(C)(C)C)CC4)nc3)nc3c2cnn3C(C)C)c(=O)[nH]1 [Compound A-6]  6.00 to 6.52
 8  Cc1cc(C)c(CNC(=O)c2cc(C3=CC(C)(C)NC(C)(C)C3)nc3c2cnn3C2CCCC2)c(=O)[nH]1 [Compound B-5]        > 6.52
 9  Cc1cc(CN(C)CCN(C)C)c(CNC(=O)c2cccc3c2cnn3C2CCCC2)c(=O)[nH]1 [Compound D-75]  5.52 to 6.00
10  Cc1cc(C)c(CNC(=O)c2cc(-c3cccc(CN4CCOCC4)c3)nc3c2cnn3C(C)C)c(=O)[nH]1 [Compound A-54]  5.52 to 6.00
11  Cc1cc(C)c(CNC(=O)c2cc(-c3ccc(CN(C)C)cc3)cc3c2cnn3C2CCN(C(=O)C(C)(C)C)CC2)c(=O)[nH]1 [Compound C-31]        > 6.52
12  Cc1cc(C)c(CNC(=O)c2cc(C(=O)N(C)CCN(C)C)nc3c2cnn3C(C)C)c(=O)[nH]1 [Compound B-133]  5.00 to 5.52
13  Cc1cc(C)c(CNC(=O)c2cc(C3CCN(C(=O)CCN)CC3)nc3c2cnn3C(C)C)c(=O)[nH]1 [Compound B-62]  6.00 to 6.52
14  Cc1cc(C)c(CNC(=O)c2cc(-c3cccc(CN(C)CCO)c3)cc3c2cnn3C2CCCC2)c(=O)[nH]1 [Compound C-29]        > 6.52
15  Cc1cc(CN2CCNC(=O)C2)c(CNC(=O)c2cc(Br)cc3c2cnn3C2CCCC2)c(=O)[nH]1 [Compound D-69]  5.52 to 6.00
16  C=C(C)c1nn(C(C)C)c2nc(-c3ccc(CN4CCOCC4)cc3)cc(C(=O)NCc3c(C)cc(C)[nH]c3=O)c12 [Compound A-94]  5.00 to 5.52
17  Cc1cc(C)c(CNC(=O)c2cc(-c3ccc(OCCCN(C)C)cc3)cc3c2cnn3C2CCCC2)c(=O)[nH]1 [Compound C-35]        > 6.52
18  CNCCN1CC=C(c2cc(C(=O)NCc3c(C)cc(C)[nH]c3=O)c3cnn(C4CCCC4)c3c2)CC1 [Compound D-48]        > 6.52
19  Cc1cc(C)c(CNC(=O)c2cc(CN3CCC[C@@H]3C(N)=O)cc3c2cnn3C2CCCC2)c(=O)[nH]1 [Compound D-93]  6.00 to 6.52
20  Cc1cc(C)c(CNC(=O)c2cc(CO)cc3c2cnn3C2CCCC2)c(=O)[nH]1 [Compound D-8]  6.00 to 6.52
21  Cc1cc(C)c(CNC(=O)c2cc(-c3cccc(COCCN(C)C)c3)cc3c2cnn3C2CCCC2)c(=O)[nH]1 [Compound C-22]        > 6.52
22  Cc1cc(CN2CCC(N3CCCCC3)CC2)c(CNC(=O)c2cc(Br)cc3c2cnn3C2CCCC2)c(=O)[nH]1 [Compound D-79]  5.52 to 6.00
23  Cc1cc(C)c(CNC(=O)c2cc(C3CCN(S(C)(=O)=O)CC3)nc3c2cnn3C(C)C)c(=O)[nH]1 [Compound B-27]  6.00 to 6.52
24  Cc1cc(C)c(CNC(=O)c2cc(-c3ccc(N4CCN(C(=O)OC(C)(C)C)CC4)cc3)nc3c2cnn3C(C)C)c(=O)[nH]1 [Compound A-51]  5.52 to 6.00
25  Cc1cc(C)c(CNC(=O)c2cc(C3=CC(C)(C)NC(C)(C)C3)nc3c2cnn3CC(F)(F)F)c(=O)[nH]1 [Compound B-164]  5.00 to 5.52
26  C=C(C)Cn1ncc2c(C(=O)NCc3c(C)cc(C)[nH]c3=O)cc(C3=CC(C)(C)NC(C)(C)C3)nc21 [Compound B-3]  5.52 to 6.00
27  Cc1cc(C)c(CNC(=O)c2c(Cl)c(C3=CC(C)(C)NC(C)(C)C3)nc3c2cnn3C(C)C)c(=O)[nH]1 [Compound B-12]  5.52 to 6.00
28  Cc1cc(C)c(CNC(=O)c2cc(-c3ccc(CN4CCOCC4)cc3)cc3c2ccn3C2CCCC2)c(=O)[nH]1 [Compound E-2]        > 6.52
